// each record: one item and its pIC50 for BACE 1 (Homo sapiens, UniProt P56817)
pIC50: −log10 of the molar value.
measured-attribute: pIC50

# compound, result-value
measured = [
    ("COc1ccc(CN)cc1OCCN1CCCCC1 [Compound F2S4-m]", 4.80),
    ("COc1ccc(CN)cc1OCCN1CCCC1 [Compound F3S4-m]", 5.08),
]
